experiment: protein stability index of a GFP-peptide fusion (yeast GPS) (PSI 1-4); higher = more stable; sorted into four equal gates, so the index is relative within each strain; settings: doa10∆
Measure: protein stability index
Provide a numeric answer; units are not to be included.

Record excerpt, results attached:
DKLTSIQDTLRTGSQSP [MED7] : 2.7
KDLQENLLVLRGKNEII [RPO21] : 1.31
AVVVRGRYAGKKVVIVK [RPL27A] : 3.13
LETILEEFRNLAALNVW [SSN2] : 2.9
SPTPIQRITIPNVCNMK [PRP28] : 1.99
QTRKEYNTSILEFRWLT [SIN4] : 1.74

Attention now turns to another entry.
# return recorded protein stability index for entry SVRLQRFYQLGVDLKLK [CSN12] 3.2
